The reported numbers originate from patent US7776855B2.

# EXPERIMENTAL_DETAILS: Solubility of Compound 1 in pH 4 buffer (24 h shaking, HPLC)
# Type: physicochemical
# MEASUREMENT_PARAMETERS: aqueous buffer, thermodynamic from solid, ambient temperature
MEASURED_ENDPOINT: solubility at 24 h
Show the value, then the unit it is measured in.

**Q:** # solubility at 24 h lookup, item CC(=O)NC[C@H]1CN(c2ccc(N3Cc4cn(C)nc4C3)c(F)c2)C(=O)O1
**A:** 7 µg/mL

###

# EXPERIMENTAL_DETAILS: Prodrug Solubility (visual inspection in buffer)
# Type: physicochemical
# MEASUREMENT_PARAMETERS: aqueous buffer, thermodynamic from solid, Sodium citrate (40 mM) pH 4, read-out: Solubility Sodium Citrate
MEASURED_ENDPOINT: solubility at 1 min

**Q:** # solubility at 1 min lookup, item CCOP(=O)(O)OCOC(=O)N(C[C@H]1CN(c2ccc(N3Cc4cn(C)nc4C3)c(F)c2)C(=O)O1)C(C)=O [Compound 21a]
**A:** ≥ 10000 µg/mL

###

# EXPERIMENTAL_DETAILS: Prodrug Solubility (visual inspection in buffer)
# Type: physicochemical
# MEASUREMENT_PARAMETERS: aqueous buffer, thermodynamic from solid, phosphate-buffered saline pH 7, read-out: Solubility Saline
# Description: One mg of each compound was diluted with at least 100 μl of the designated buffer, vortexed vigorously for approximately 1 minute, and visually inspected. Sodium citrate (40 mM) was buffered to pH 4 and phosphate-buffered saline was buffered to pH 7. Solutions with no remaining particles were recorded with a solubility ≧to the starting concentration. […] The term “ND” means not determined.
Would you mind telling me the reported solubility at 1 min of each entry?

**Q:** # solubility at 1 min lookup, item CC(=O)N(C[C@H]1CN(c2ccc(N3Cc4cn(C)nc4C3)c(F)c2)C(=O)O1)C(=O)OCOC(=O)CN1CCNCC1 [Compound 4a]
**A:** ≥ 10000 µg/mL

**Q:** Likewise for CC(=O)N(C[C@H]1CN(c2ccc(N3Cc4cn(C)nc4C3)c(F)c2)C(=O)O1)C(=O)OCOC(=O)CN1CCN(C)CC1 [Compound 8] ?
**A:** ≥ 10000 µg/mL

**Q:** Likewise for CC(=O)N(C[C@H]1CN(c2ccc(N3Cc4cn(C)nc4C3)c(F)c2)C(=O)O1)C(=O)OCOC(=O)CN(C)C [Compound 5] ?
**A:** ≥ 10000 µg/mL

**Q:** Likewise for CC(=O)N(C[C@H]1CN(c2ccc(N3Cc4cn(C)nc4C3)c(F)c2)C(=O)O1)C(=O)OCOC(=O)CN1CCOCC1 [Compound 6] ?
**A:** 1000 µg/mL

**Q:** Likewise for CNCC(=O)OCOC(=O)N(C[C@H]1CN(c2ccc(N3Cc4cn(C)nc4C3)c(F)c2)C(=O)O1)C(C)=O [Compound 10] ?
**A:** ≥ 10000 µg/mL

**Q:** Likewise for CC(=O)N(C[C@H]1CN(c2ccc(N3Cc4cn(C)nc4C3)c(F)c2)C(=O)O1)C(=O)OCOP(=O)(O)O [Compound 18a] ?
**A:** ≥ 2000 µg/mL

**Q:** Likewise for CCOP(=O)(O)OCOC(=O)N(C[C@H]1CN(c2ccc(N3Cc4cn(C)nc4C3)c(F)c2)C(=O)O1)C(C)=O [Compound 21a] ?
**A:** ≥ 10000 µg/mL
